Reported values of percentage of animals protected against psychomotor seizures for individual entries
Tested on: CF-1 mice
Protocol summary: 6 Hz seizure test (44 mA, 3 sec, corneal electrodes) in vivo
Design: species or system mouse
Condition details: 20 mg/kg IP, one hour before assay, 6 Hz 44 mA, n=16 per group
Only the number, expressed in %, is required.

Solved cases (3 shown):
{"columns": ["Compound", "Unit name", "Observed measurement"],
 "data": [
  ["CCN[C@H](C)Cc1cccc(C(F)(F)F)c1 [(R)-fenfluramine]", "%", 31.3],
  ["CCNC(C)Cc1cccc(C(F)(F)F)c1 (racemic) [(rac)-fenfluramine]", "%", 37.5],
  ["CC(N)Cc1cccc(C(F)(F)F)c1 (racemic) [(rac)-norfenfluramine]", "%", 50]
]}

Give percentage of animals protected against psychomotor seizures for this entry on CF-1 mice: C[C@@H](N)Cc1cccc(C(F)(F)F)c1 [(R)-norfenfluramine]
50
